# credit: ChEMBL document CHEMBL6153103

- assay-info: Cytotoxicity against human HEK293T cells assessed as inhibition of cell proliferation incubated for 72 hrs by CCK-8 assay
- Assay type: toxicity, cell-based, HEK-293T
observation-type: IC50 at 72 h

Input line: Quick one: IC50 at 72 h for COc1cccc2c1C(=O)c1c(O)c3c(c(O)c1C2=O)C[C@@](O)(C(=O)CO)C[C@@H]3O[C@H]1C[C@H](NC(=O)OC2/C=C/CCCCC2)[C@H](O)[C@H](C)O1 (stereo partly specified) ?
Output line: 1150 nM

###

- assay-info: Cytotoxicity against human HEK293T cells assessed as inhibition of cell proliferation incubated for 72 hrs 15 uM of (4-((2-((10-(((4-(6-methyl-1,2,4,5-tetrazin-3-yl)benzyl)oxy)carbonyl)-2,3-dihydrophenanthro[9,10-b][1,4]dioxin-2-yl)oxy)ethoxy)carbonyl)phenyl)boronic acid by CCK-8 assay
- Type: toxicity, cell-based, HEK-293T
observation-type: IC50 at 72 h

Input line: Quick one: IC50 at 72 h for COc1cccc2c1C(=O)c1c(O)c3c(c(O)c1C2=O)C[C@@](O)(C(=O)CO)C[C@@H]3O[C@H]1C[C@H](NC(=O)OC2/C=C/CCCCC2)[C@H](O)[C@H](C)O1 (stereo partly specified) ?
Output line: 145 nM

###

- Tested on: HeLa
- assay-info: Cytotoxicity against human HeLa cells assessed as inhibition of cell proliferation incubated for 72 hrs by CCK-8 assay
- Type: functional, cell-based
observation-type: pIC50
Scale explanation: pIC50 corresponds to minus log10 of a concentration expressed in moles per litre.

>>> observed_value("COc1cccc2c1C(=O)c1c(O)c3c(c(O)c1C2=O)C[C@@](O)(C(=O)CO)C[C@@H]3O[C@H]1C[C@H](N)[C@H](O)[C@H](C)O1 [DOXORUBICIN]")
7.85

Continue with the next compound.
Input line: Form entry - test system: HeLa; read-out: pIC50; compound: COc1cccc2c1C(=O)c1c(O)c3c(c(O)c1C2=O)C[C@@](O)(C(=O)CO)C[C@@H]3O[C@H]1C[C@H](NC(=O)OC2/C=C/CCCCC2)[C@H](O)[C@H](C)O1 (some centres not stated)
Output line: 6.00

###

- assay-info: Cytotoxicity against human HEK293T cells assessed as inhibition of cell proliferation incubated for 72 hrs 15 uM of 4-(6-methyl-1,2,4,5-tetrazin-3-yl)benzyl 3-(2-hydroxyethoxy)-2,3-dihydrophenanthro[9,10-b][1,4]dioxine-7-carboxylate by CCK-8 assay
- Assay type: toxicity, cell-based, HEK-293T
observation-type: IC50 at 72 h (nM)
Respond with the bare value in nM.

Input line: Quick one: IC50 at 72 h for COc1cccc2c1C(=O)c1c(O)c3c(c(O)c1C2=O)C[C@@](O)(C(=O)CO)C[C@@H]3O[C@H]1C[C@H](NC(=O)OC2/C=C/CCCCC2)[C@H](O)[C@H](C)O1 (stereo partly specified) ?
Output line: 126
